In this section, each of the molecules is paired with its reported EC50.
- assay notes: Luminescence Cell-Based Dose Confirmation HTS to Identify Activators of 5'UTR Stem-Loop Driven Alpha-Synuclein mRNA Translation in H4 Neuroglioblastoma Cells. [Related pubchem assays: 1829 (Project Summary), 1814 (Primary HTS)]
- Assay type: functional
Calls of active or inactive are those of the source. No stated cut-off is given here; in the data, actives have a measured EC50 and inactives only a lower limit.
metric name: EC50

c1ccc2[nH]c(-c3cscn3)nc2c1 [THIABENDAZOLE] :: 14.3 µM (active)
C(=N\Nc1nc(-c2ccccc2)cs1)/c1cccnc1 :: 0.198 µM (active)
CC(C)N(Cc1nccn1C)C(=O)CCc1nnc(CCCc2ccccc2)o1 :: 12.7 µM (active)
O=C(c1ccc(F)cc1)c1ccc(-c2ccc(F)cc2)nc1 :: 4.41 µM (active)
COc1ccc(C(=O)/C=C2/C(=O)Nc3ccccc32)cc1 :: 18.1 µM (active)

The reported numbers originate from ChEMBL document CHEMBL1201862.
